Assay: RP, Thermo Scientific Accucore C18, 150 × 2.1 mm, 2.6 µm, 24 °C, 0.28 mL/min, estimated dead time 0.83 min; A: 90% water + 10% acetonitrile + 10 mM ammonium acetate; B: 20% water + 80% methanol + 10 mM ammonium acetate; gradient (min/%B) 0/0 2.5/0 7.5/30 12.5/30 15/40 20/100 27.5/100
Details: stereoisomer not certain
READOUT KIND: LC retention time (min)
State just the number; it will be interpreted in min.

* CC(Cc1ccc(O)cc1)NCC(O)c1cc(O)cc(O)c1 (centres undefined) | 3.13
* CC1C(c2ccccc2)OCCN1C (centres undefined) | 8.08

Can you look up the measured LC retention time of CCCC(Cc1ccccc1)N1CCCC1 (centres undefined) for me?
9.51

Repeat for the following compound: C#CCN(C)C(C)Cc1ccccc1 (centres undefined)
15.1

Repeat for the following compound: Cc1cccc(Nc2ccccc2C(=O)O)c1C
13

Repeat for the following compound: CN(C)CCC=C1c2ccccc2CCc2ccccc21
17.2

Repeat for the following compound: CNCCC=C1c2ccccc2CCc2ccccc21
15.6

Repeat for the following compound: CC(C)NCC(O)COc1cccc2[nH]ccc12 (centres undefined)
5.15

Repeat for the following compound: CCCC(C(=O)c1ccc2c(c1)OCO2)N1CCCC1 (centres undefined)
8.97

Repeat for the following compound: CC(CN1CCOCC1)C(C(=O)N1CCCC1)(c1ccccc1)c1ccccc1 (centres undefined)
19

Repeat for the following compound: C#CC1(O)CCC2C3CCC4=CC(=O)CCC4=C3C=CC21CC (centres undefined)
17.5

Repeat for the following compound: CCCCCc1cc(O)c2c(c1)OC(C)(C)C1CCC(C(=O)O)=CC21 (centres undefined)
18.9

Repeat for the following compound: COC12CCC3(CC1C(C)(O)C(C)(C)C)C1Cc4ccc(O)c5c4C3(CCN1CC1CC1)C2O5 (centres undefined)
22.2

Repeat for the following compound: COC(=O)C1=C(C)NC(C)=C(C(=O)OC)C1c1ccccc1[N+](=O)[O-]
17.2

Repeat for the following compound: CC1CC2C(C(O)CC3(C)C2CCC3(O)C(=O)CO)C2(C)C=CC(=O)C=C12 (centres undefined)
11

// provenance: the RepoRT retention time repository (doi:10.1016/j.chroma.2015.03.063)
